# test.system: Nav 1.7 (Homo sapiens (Human), UniProt Q15858)
# Sequence (Q15858 whole entry): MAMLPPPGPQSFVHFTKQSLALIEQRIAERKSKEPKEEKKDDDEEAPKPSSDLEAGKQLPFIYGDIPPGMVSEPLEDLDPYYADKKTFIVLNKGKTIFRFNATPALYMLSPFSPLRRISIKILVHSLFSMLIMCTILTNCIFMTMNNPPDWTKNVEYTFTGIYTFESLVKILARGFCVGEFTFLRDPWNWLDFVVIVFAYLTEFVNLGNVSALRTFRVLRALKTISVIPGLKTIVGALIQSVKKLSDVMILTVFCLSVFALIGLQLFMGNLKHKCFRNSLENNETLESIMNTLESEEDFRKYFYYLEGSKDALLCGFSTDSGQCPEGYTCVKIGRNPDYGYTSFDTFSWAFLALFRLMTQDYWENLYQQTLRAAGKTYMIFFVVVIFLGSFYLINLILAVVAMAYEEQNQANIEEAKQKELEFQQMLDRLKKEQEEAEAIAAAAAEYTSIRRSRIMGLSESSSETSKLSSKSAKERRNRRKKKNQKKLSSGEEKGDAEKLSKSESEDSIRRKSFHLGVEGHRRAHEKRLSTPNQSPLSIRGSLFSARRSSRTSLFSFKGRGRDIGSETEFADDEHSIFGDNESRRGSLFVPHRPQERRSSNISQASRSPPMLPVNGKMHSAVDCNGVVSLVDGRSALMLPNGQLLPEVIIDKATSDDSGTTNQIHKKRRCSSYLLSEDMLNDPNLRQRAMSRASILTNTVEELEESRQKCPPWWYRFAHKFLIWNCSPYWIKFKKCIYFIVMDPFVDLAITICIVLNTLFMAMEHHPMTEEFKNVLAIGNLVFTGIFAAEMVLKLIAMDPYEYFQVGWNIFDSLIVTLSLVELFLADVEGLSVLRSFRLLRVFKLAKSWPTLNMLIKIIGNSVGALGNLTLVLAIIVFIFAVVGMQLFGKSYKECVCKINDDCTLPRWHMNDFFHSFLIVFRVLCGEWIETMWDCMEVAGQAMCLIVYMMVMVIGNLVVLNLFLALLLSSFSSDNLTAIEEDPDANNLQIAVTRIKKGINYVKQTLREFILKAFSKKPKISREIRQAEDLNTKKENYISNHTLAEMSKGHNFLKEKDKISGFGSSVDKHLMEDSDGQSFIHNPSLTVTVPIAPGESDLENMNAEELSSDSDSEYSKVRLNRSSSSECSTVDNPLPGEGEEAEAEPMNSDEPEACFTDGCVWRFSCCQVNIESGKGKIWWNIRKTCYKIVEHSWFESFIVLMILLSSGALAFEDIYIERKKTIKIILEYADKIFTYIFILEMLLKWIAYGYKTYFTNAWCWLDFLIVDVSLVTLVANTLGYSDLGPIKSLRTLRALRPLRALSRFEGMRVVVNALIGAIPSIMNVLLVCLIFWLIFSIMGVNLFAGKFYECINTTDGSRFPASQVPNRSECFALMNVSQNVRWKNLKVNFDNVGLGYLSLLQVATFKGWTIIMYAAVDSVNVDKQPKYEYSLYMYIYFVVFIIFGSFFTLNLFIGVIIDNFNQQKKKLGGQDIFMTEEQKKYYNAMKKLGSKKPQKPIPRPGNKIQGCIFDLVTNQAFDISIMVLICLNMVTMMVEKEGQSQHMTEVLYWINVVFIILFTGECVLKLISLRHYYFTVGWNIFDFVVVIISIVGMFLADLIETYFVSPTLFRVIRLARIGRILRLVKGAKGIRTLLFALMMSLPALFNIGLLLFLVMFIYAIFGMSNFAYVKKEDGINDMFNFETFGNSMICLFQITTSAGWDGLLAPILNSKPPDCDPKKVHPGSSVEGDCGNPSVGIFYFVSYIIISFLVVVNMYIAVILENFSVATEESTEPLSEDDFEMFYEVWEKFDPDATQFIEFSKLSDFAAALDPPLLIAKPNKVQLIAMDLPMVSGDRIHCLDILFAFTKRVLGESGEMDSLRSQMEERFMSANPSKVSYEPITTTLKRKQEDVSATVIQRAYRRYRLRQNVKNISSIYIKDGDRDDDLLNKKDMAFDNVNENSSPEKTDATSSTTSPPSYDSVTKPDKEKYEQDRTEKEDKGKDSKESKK
# method.description: Inhibition of sodium channels, Red Membrane Potential Dye FLIPR assay, veratridine depolarization
# Format: cell-based
# condition.notes: HEK-293 cells overexpressing the channel; read-out: Nav1.7 IC50
pIC50: −log10 of the molar value.
Label scheme for pIC50: low bracket: < 6; middle bracket: ≥ 6 and < 7; high bracket: ≥ 7

compound: CC(C)Oc1ccc([C@H]2CCOc3cc(S(=O)(=O)Nc4cccc(F)n4)ccc32)c(-c2ccnn2C)c1
cat: high bracket
//
compound: O=S(=O)(Nc1cccnn1)c1ccc2c(c1)OCC[C@@H]2c1ccc(C(F)(F)F)cc1O[C@H]1CCOC1 (racemic)
cat: middle bracket
//
compound: O=S(=O)(Nc1ccncn1)c1ccc2c(c1)OCC[C@@H]2c1ccc(C(F)(F)F)cc1OC1CCOCC1
cat: high bracket
//
compound: O=C1CCCN1c1cc(C(F)(F)F)ccc1[C@H]1CCOc2cc(S(=O)(=O)Nc3ncc(F)cn3)ccc21
cat: middle bracket
//
compound: CC(C)Oc1cccc(NS(=O)(=O)c2ccc3c(c2)OCC[C@H]3c2ccc(C(F)(F)F)cc2-c2ccnn2C)n1
cat: middle bracket
//
compound: COCCOc1cc(C(F)(F)F)ccc1[C@H]1CCOc2cc(S(=O)(=O)Nc3cccc(F)n3)ccc21 (racemic)
cat: high bracket
//
compound: Cn1nccc1-c1cc(C(F)(F)F)ccc1[C@H]1CCOc2cc(S(=O)(=O)Nc3cccnc3F)ccc21
cat: low bracket
//
compound: O=S(=O)(Nc1cccnn1)c1ccc2c(c1)OCC[C@@H]2c1ccc(C(F)(F)F)cc1N1CCOCC1 (racemic)
cat: high bracket
//
compound: O=C1OCCN1c1cc(C(F)(F)F)ccc1[C@H]1CCOc2cc(S(=O)(=O)Nc3cccc(F)n3)ccc21 (racemic)
cat: high bracket
//
compound: CS(=O)(=O)CCc1cc(C(F)(F)F)ccc1[C@@H]1CCOc2cc(S(=O)(=O)Nc3ncc(F)cn3)ccc21
cat: low bracket
//
compound: O=C1OCCN1c1cc(C(F)(F)F)ccc1[C@H]1CCOc2cc(S(=O)(=O)Nc3cccnn3)ccc21 (racemic)
cat: high bracket
//
compound: COc1cc(C(F)(F)F)ccc1[C@@H]1CCOc2cc(S(=O)(=O)Nc3ncccn3)ccc21
cat: low bracket
//
compound: COCCOc1cc(C(F)(F)F)ccc1[C@H]1CCOc2cc(S(=O)(=O)Nc3ncccn3)ccc21
cat: middle bracket
//
compound: O=S(=O)(Nc1ccncn1)c1ccc2c(c1)OCC[C@@H]2c1ccc(C(F)(F)F)cc1CCCF (racemic)
cat: high bracket
//
compound: COCCOc1cc(C(F)(F)F)ccc1[C@H]1CCOc2cc(S(=O)(=O)Nc3ccncn3)ccc21 (racemic)
cat: high bracket
//
compound: O=S(=O)(Nc1cccnn1)c1ccc2c(c1)OCC[C@@H]2c1ccc(C(F)(F)F)cc1CCCCF (racemic)
cat: high bracket
//
compound: O=C1COCCN1c1cc(C(F)(F)F)ccc1[C@@H]1CCOc2cc(S(=O)(=O)Nc3ncccn3)ccc21
cat: low bracket

###

Quick list: IC50 per entry.
# test.system: Nav 1.7 (Homo sapiens (Human), UniProt Q15858)
# method.description: Inhibition of sodium channels, Red Membrane Potential Dye FLIPR assay, veratridine depolarization
# Format: cell-based
# condition.notes: HEK-293 cells overexpressing the channel; read-out: Nav1.7 IC50
experimental.readout: IC50

molecule: COCCCc1cc(C(F)(F)F)ccc1[C@H]1CCOc2cc(S(=O)(=O)Nc3ncccn3)ccc21
measurement: 69 nM

molecule: O=S(=O)(Nc1ncccn1)c1ccc2c(c1)OCC[C@@H]2c1ccc(C(F)(F)F)cc1C1CCOCC1
measurement: 156 nM

molecule: O=S(=O)(Nc1ncccn1)c1ccc2c(c1)OCC[C@H]2c1ccc(C(F)(F)F)cc1C1CCOCC1
measurement: 740 nM

molecule: CS(=O)(=O)CCc1cc(C(F)(F)F)ccc1[C@@H]1CCOc2cc(S(=O)(=O)Nc3cccc(F)n3)ccc21
measurement: 993 nM
